measurement_target: T1, Human CD137 ECD (human)
T1 construct: entry includes C-terminal His-tag and biotin acceptor peptide; also called human CD137 extracellular domain; 4-1BB
T1 sequence (chain, as listed by the source limits assumed): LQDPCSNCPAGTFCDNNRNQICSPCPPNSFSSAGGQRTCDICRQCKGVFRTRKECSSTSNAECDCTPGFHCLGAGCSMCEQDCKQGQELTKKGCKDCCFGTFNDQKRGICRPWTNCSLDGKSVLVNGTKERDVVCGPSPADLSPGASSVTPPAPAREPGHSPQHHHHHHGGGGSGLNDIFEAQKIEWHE
protocol: Biacore SPR, vs parent H183/L072
measured_endpoint: fold change of affinity (fold)
Quick reminder: number only, in fold, skip the unit.

Briefly, fold change of affinity measured for H183/L072 VL V51Q (antibody, name in Kabat numbering, V domains shown, Dual-Ig) VH: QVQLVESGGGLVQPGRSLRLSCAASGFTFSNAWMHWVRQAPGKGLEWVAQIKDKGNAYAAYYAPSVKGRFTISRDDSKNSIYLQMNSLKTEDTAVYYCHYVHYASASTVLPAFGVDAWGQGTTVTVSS VL: DIVMTQSPLSLPVTPGEPASISCQASQELVHMNRNTYLHWYQQKPGQAPRLLIYKQSNRFPGVPDRFSGSGSGTDFTLKISRVEAEDVGVYYCAQGTSVPFTFGQGTKLEIK : 0.8

Briefly, fold change of affinity measured for H183/L072 VL R54V (antibody, name in Kabat numbering, V domains shown, Dual-Ig) VH: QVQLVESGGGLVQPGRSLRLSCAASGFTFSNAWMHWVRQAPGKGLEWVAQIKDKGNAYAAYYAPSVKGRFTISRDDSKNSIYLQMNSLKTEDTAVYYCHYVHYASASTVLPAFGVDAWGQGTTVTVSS VL: DIVMTQSPLSLPVTPGEPASISCQASQELVHMNRNTYLHWYQQKPGQAPRLLIYKVSNVFPGVPDRFSGSGSGTDFTLKISRVEAEDVGVYYCAQGTSVPFTFGQGTKLEIK : 1.3

Briefly, fold change of affinity measured for H183/L072 VL H27dG (antibody, name in Kabat numbering, V domains shown, Dual-Ig) VH: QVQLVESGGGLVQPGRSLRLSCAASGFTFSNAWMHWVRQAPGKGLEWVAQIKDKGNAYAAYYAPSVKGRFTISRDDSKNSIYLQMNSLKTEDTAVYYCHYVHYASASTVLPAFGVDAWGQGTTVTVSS VL: DIVMTQSPLSLPVTPGEPASISCQASQELVGMNRNTYLHWYQQKPGQAPRLLIYKVSNRFPGVPDRFSGSGSGTDFTLKISRVEAEDVGVYYCAQGTSVPFTFGQGTKLEIK : 0.6

Briefly, fold change of affinity measured for H183/L072 VL R29T (antibody, name in Kabat numbering, V domains shown, Dual-Ig) VH: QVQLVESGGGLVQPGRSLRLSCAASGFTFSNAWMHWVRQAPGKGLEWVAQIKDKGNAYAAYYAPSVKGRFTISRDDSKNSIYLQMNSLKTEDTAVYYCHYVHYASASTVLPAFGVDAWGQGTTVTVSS VL: DIVMTQSPLSLPVTPGEPASISCQASQELVHMNTNTYLHWYQQKPGQAPRLLIYKVSNRFPGVPDRFSGSGSGTDFTLKISRVEAEDVGVYYCAQGTSVPFTFGQGTKLEIK : 0.8

Briefly, fold change of affinity measured for H183/L072 VL Q90R (antibody, name in Kabat numbering, V domains shown, Dual-Ig) VH: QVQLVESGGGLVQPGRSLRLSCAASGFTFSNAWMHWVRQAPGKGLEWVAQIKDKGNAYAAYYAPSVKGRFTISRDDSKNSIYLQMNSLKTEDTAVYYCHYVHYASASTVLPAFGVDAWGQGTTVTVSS VL: DIVMTQSPLSLPVTPGEPASISCQASQELVHMNRNTYLHWYQQKPGQAPRLLIYKVSNRFPGVPDRFSGSGSGTDFTLKISRVEAEDVGVYYCARGTSVPFTFGQGTKLEIK : 0

Briefly, fold change of affinity measured for H183/L072 VL S26V (antibody, name in Kabat numbering, V domains shown, Dual-Ig) VH: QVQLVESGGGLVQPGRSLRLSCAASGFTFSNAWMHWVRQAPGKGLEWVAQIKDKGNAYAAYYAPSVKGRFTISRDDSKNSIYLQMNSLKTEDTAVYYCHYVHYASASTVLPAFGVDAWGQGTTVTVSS VL: DIVMTQSPLSLPVTPGEPASISCQAVQELVHMNRNTYLHWYQQKPGQAPRLLIYKVSNRFPGVPDRFSGSGSGTDFTLKISRVEAEDVGVYYCAQGTSVPFTFGQGTKLEIK : 0.3

Briefly, fold change of affinity measured for H183/L072 VL P95M (antibody, name in Kabat numbering, V domains shown, Dual-Ig) VH: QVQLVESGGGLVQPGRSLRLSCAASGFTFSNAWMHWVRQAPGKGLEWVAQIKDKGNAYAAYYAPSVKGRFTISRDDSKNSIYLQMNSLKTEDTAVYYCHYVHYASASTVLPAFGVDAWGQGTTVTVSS VL: DIVMTQSPLSLPVTPGEPASISCQASQELVHMNRNTYLHWYQQKPGQAPRLLIYKVSNRFPGVPDRFSGSGSGTDFTLKISRVEAEDVGVYYCAQGTSVMFTFGQGTKLEIK : 0

Briefly, fold change of affinity measured for H183/L072 VL T31Q (antibody, name in Kabat numbering, V domains shown, Dual-Ig) VH: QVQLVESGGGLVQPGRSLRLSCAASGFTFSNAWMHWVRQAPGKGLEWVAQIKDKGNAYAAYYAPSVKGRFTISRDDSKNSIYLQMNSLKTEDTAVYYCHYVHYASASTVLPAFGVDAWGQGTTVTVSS VL: DIVMTQSPLSLPVTPGEPASISCQASQELVHMNRNQYLHWYQQKPGQAPRLLIYKVSNRFPGVPDRFSGSGSGTDFTLKISRVEAEDVGVYYCAQGTSVPFTFGQGTKLEIK : 0.5

Briefly, fold change of affinity measured for H183/L072 VL V27cQ (antibody, name in Kabat numbering, V domains shown, Dual-Ig) VH: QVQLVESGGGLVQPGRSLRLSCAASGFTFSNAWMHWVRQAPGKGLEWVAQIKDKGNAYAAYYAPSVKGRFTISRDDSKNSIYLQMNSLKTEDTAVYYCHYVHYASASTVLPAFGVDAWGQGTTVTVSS VL: DIVMTQSPLSLPVTPGEPASISCQASQELQHMNRNTYLHWYQQKPGQAPRLLIYKVSNRFPGVPDRFSGSGSGTDFTLKISRVEAEDVGVYYCAQGTSVPFTFGQGTKLEIK : 0.8

Briefly, fold change of affinity measured for H183/L072 VL R54Q (antibody, name in Kabat numbering, V domains shown, Dual-Ig) VH: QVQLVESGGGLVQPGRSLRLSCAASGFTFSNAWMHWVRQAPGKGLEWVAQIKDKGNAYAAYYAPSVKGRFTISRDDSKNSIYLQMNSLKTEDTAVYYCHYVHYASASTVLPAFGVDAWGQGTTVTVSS VL: DIVMTQSPLSLPVTPGEPASISCQASQELVHMNRNTYLHWYQQKPGQAPRLLIYKVSNQFPGVPDRFSGSGSGTDFTLKISRVEAEDVGVYYCAQGTSVPFTFGQGTKLEIK : 0.8
